The measurements presented in this section are drawn from patent EP4782434A1.

Tested on: Theta-mediated end joining (TMEJ) process in HEK293T cells
Assay: TMEJ reporter assay (NanoGlo luciferase)
Format: cell-based
Details: Homo sapiens, HEK-293T, HEK293T cells electroporated with TMEJ substrate, 24 hours
So I've got a bunch of compounds here, and I need their IC50 values.
Answers are plain numbers, in nM.

Parameters: items (list). Returns: IC50 for each item.
1. [2H]C([2H])([2H])O[C@@H](C)c1ccc(CS(=O)(=O)NC(=O)c2ccc(C)cc2-c2cc(C(F)F)ncc2OC)cc1
2. [2H]C([2H])([2H])O[C@@H](C)c1ccc(CS(=O)(=O)NC(=O)c2ccc(C([2H])([2H])[2H])cc2-c2cc(C(F)F)ncc2OC)cc1

1: 2; 2: 2

// for each compound below, give its IC50
1. COc1ccc(C(F)F)cc1-c1cc(C)ncc1C(=O)NS(=O)(=O)Cc1ccc([C@H](C)OC)cc1
2. [2H]c1c([2H])c([C@H](C)OC([2H])([2H])[2H])c([2H])c([2H])c1CS(=O)(=O)NC(=O)c1ccc(C([2H])([2H])[2H])cc1-c1cc(Cl)ncc1OC

1. 1
2. 1.3
